- Tested on: Trypanosoma brucei rhodesiense
- test name: Inhibitory concentration against Trypanosoma brucei rhodesiense STIB 900 upon incubation at 37 degrees C in 5% CO2 for 72 hours
- Format: functional, organism-based
- assay context: Trypanosoma brucei, 72 h
measurement name: IC50 (µM)
Please state the figure in µM; there is no need to write the unit.

// query Input CCCCCCCCCCC1(C)SC(O)=C(CCC)C1=O (configuration not stated) , output reported IC50.
// result 21

// query Look up IC50 of CCCCCCCCCCCCCCCCC1(C)SC(O)=C(C)C1=O (configuration not stated) and report it.
// result 62

// query Output measured IC50 for this item: CC(C)=CCC/C(C)=C/CC1(C)SC(O)=C(C)C1=O (configuration not stated)
// result 190

// query State its IC50 for this compound: CCCCCCCCC1(C)SC(O)=C(CC)C1=O (configuration not stated)
// result 157

// query Given CCCCCCC1(C)SC(O)=C(C)C1=O (configuration not stated) , respond with its IC50.
// result 112

// query Check the records and state IC50 for CCCCCCCCCCC1(C)SC(O)=C(Cc2ccccc2)C1=O (configuration not stated)
// result 132

// query Give reported IC50 value for CCCCCCCCCCCCCCCCC1(C)SC(O)=C(CC)C1=O (configuration not stated)
// result 47

// query Answer with the recorded IC50 of CCCCCCC1(C)OC(O)=C(C)C1=O (configuration not stated) only.
// result 247

// query State its IC50 for this compound: CCCC1(C/C=C(/C)CCC=C(C)C)C(=O)SC(C)C1=O (configuration not stated)
// result 55

// query Note IC50 for the compound shown: CCCCCCCCCCCCCCCCC1(C)SC(O)=C(CCC)C1=O (configuration not stated)
// result 29

// query # return recorded IC50 for input CCCCCCCCCCC1(CC)SC(O)=C(C)C1=O (configuration not stated)
// result 153

// query Name the recorded IC50 of the compound listed here: CCCCCCCCCCC1(C)SC(=O)C(CCC)=C1OCCCCCCO (configuration not stated)
// result 64

// query Fill in IC50 for record CCCCCCCCCCC1(C)OC(O)=C(CC)C1=O (configuration not stated)
// result 62

// query Indicate its recorded IC50; the compound in question is C=CCOC1=C(CCC)C(=O)SC1(C)CCCCCCCCCC (configuration not stated)
// result 14

// query State, in one line, measured IC50 of C=CCOC1=C(C)C(=O)SC1(C)CCCCCCCCCC (configuration not stated)
// result 167

// query Quote IC50 reported for CCCCCCCCCCC1(C)SC(O)=C(C)C1=O (configuration not stated) please.
// result 171

// query Using the record for CCCCCCCCCCCCCCCCC1(C)SC(O)=C(Cc2ccccc2)C1=O (configuration not stated) , state its measured IC50.
// result 32

// query Using known records, supply IC50 for CCCCCCCCCCC1SC(O)=C(C)C1=O (configuration not stated)
// result 6

// query Provide IC50 value for the following compound: CCCCCCC1(C)SC(O)=C(CC)C1=O (configuration not stated)
// result 71

// query // fetch IC50 given entry CCCCCCCCCCC1(C)OC(O)=C(CCCC)C1=O (configuration not stated)
// result 13

// query State, in one line, measured IC50 of C=CCC1(C)C(=O)SC(C)C1=O (configuration not stated)
// result 79

// query Name the recorded IC50 of the item CCCCCCCCCCC1(C)SC(O)=C(CC)C1=O (configuration not stated) in your answer.
// result 97

// query Give the reported IC50 for this compound. CCCC1=C(O)C(C)(CCCCCCO[Si](C)(C)C(C)(C)C)SC1=O (configuration not stated)
// result 2

----------
- System: Trypanosoma brucei rhodesiense
- test name: Inhibitory concentration against Trypanosoma brucei rhodesiense STIB 900 upon incubation at 37 degrees C in 5% CO2 for 72 hours
- Type: functional, organism-based
measurement name: IC50 (µM)
Please give a number only; it is taken to be in µM.

// query For the molecule CC(C)=CCC1(C)SC(O)=C(C)C1=O (stereo in doubt; 1a) , give its reported IC50.
// result 182

----------
- Tested on: Trypanosoma brucei rhodesiense
- test name: Inhibitory concentration against Trypanosoma brucei rhodesiense STIB 900 upon incubation at 37 degrees C in 5% CO2 for 72 hours
- Assay type: functional, organism-based
- assay context: Trypanosoma brucei, 72 h
measurement name: pIC50
Scale note: pIC50 = -log10(concentration in M).

// query Given CCCCCCCCCCCCCCCCC1(CC)SC(O)=C(C)C1=O (centres undefined) , respond with its pIC50.
// result 3.89

// query Give the reported pIC50 for this compound. CC1SC(O)=C(Cc2ccccc2)C1=O (centres undefined)
// result 3.39

// query Read off the recorded pIC50 for CCCC1=C(OC)C(C)SC1=O (centres undefined)
// result 5.05

// query Kindly indicate its recorded pIC50. Item: CCCCCCCCCCC1(C)SC(O)=C(CCCC)C1=O (centres undefined)
// result 5.10

// query Kindly indicate its recorded pIC50. Item: CCCCCCCCC1(C)SC(O)=C(C)C1=O (centres undefined)
// result 3.71

// query Let me know recorded pIC50 for C=CCC1(C)C(=O)SC(C)(CCCCCCCCCC)C1=O (centres undefined) , thanks.
// result 3.80

// query For C=CCC1(CCC)C(=O)SC(C)(CCCCCCCCCC)C1=O (centres undefined) , write its pIC50.
// result 5.05

// query Quickly give me recorded pIC50 for CCCCCCOCCOCCC1(C)SC(O)=C(CC)C1=O (centres undefined)
// result 3.92

// query Note pIC50 for the compound shown: CCC1=C(O)SC(C)C1=O (centres undefined)
// result 3.45

// query For the compound CCCCCCCCCCC1(C)SC(=O)C(CCC)=C1OCCCCCCO[Si](C)(C)C(C)(C)C (centres undefined) , give its reported pIC50.
// result 3.83

// query For CCCCCCCCCCC1(C)NC(=O)C(C(C)=O)=C1O (centres undefined) , write its pIC50.
// result 5.15

// query Indicate its recorded pIC50; the compound in question is CCCC1=C(O)C(C)(CCCCCCO)SC1=O (centres undefined)
// result 4.19

// query Answer with reported pIC50 of CCCC1=C(O)SC(C)C1=O (centres undefined)
// result 3.54

----------
Exercise: for every item that follows, state its recorded pIC50.
- Tested on: Plasmodium falciparum
- test name: In vitro inhibitory concentration against chloroquine-resistant, pyrimethamine-resistant Plasmodium falciparum K1
- Format: functional, organism-based
- assay context: Plasmodium falciparum
Please treat pIC50 as minus the base-10 logarithm of the molar concentration.

// query Return value of pIC50 for input CCCCCCCCCCC1(C)NC(=O)C(C(C)=O)=C1O (stereo unspecified) , no commentary.
// result 4.20

// query Give the reported value of pIC50 for this record: CCCCCCCCCCC1(C)SC(=O)C(CCC)=C1OCCCCCCO[Si](C)(C)C(C)(C)C (stereo unspecified)
// result 5.52

// query Output measured pIC50 for this item: CCCCCCCCCCCCCCCCC1(CC)SC(O)=C(C)C1=O (stereo unspecified)
// result 4.46

// query Please supply the value of reported pIC50 for the item CCCC1=C(OC)C(C)SC1=O (stereo unspecified)
// result 4.35

// query Give a short answer stating reported pIC50 for C=CCOC1=C(C)C(=O)SC1(C)CCCCCCCCCC (stereo unspecified) .
// result 5.22

// query Please report pIC50 for the following compound: CCCCCCCCCCC1(C)SC(O)=C(CC)C1=O (stereo unspecified)
// result 4.82

// query Report pIC50 for CC(C)=CCC/C(C)=C/CC1(C)SC(O)=C(C)C1=O (stereo unspecified)
// result 4.40

// query Fill in reported pIC50 for this entry: C=CCC1(C)C(=O)SC(C)(CCCCCCCCCC)C1=O (stereo unspecified)
// result 4.59

// query Dear colleague, please send me the reported pIC50 for CCCCCCC1(C)OC(O)=C(C)C1=O (stereo unspecified) when you can.
// result 3.65

----------
- Tested on: Trypanosoma brucei rhodesiense
- test name: Inhibitory concentration against Trypanosoma brucei rhodesiense STIB 900 upon incubation at 37 degrees C in 5% CO2 for 72 hours
- Assay type: functional, organism-based
- assay context: Trypanosoma brucei, 72 h
pIC50: −log10 of the molar value.
measurement name: pIC50

// query Assign pIC50 to the following record: CCCCCCCCCCC1(C)SC(=O)C(C/C=C(/C)CCC=C(C)C)(CCC)C1=O (centres undefined)
// result < 3.70

// query Specify pIC50 for CCC1=C(O)OC(C)C1=O (centres undefined) and stop.
// result < 3.20

// query // fetch pIC50 given entry CC1=C(O)SC(C)C1=O (centres undefined)
// result < 3.20

// query Give the reported pIC50 for this compound. CCC1SC(O)=C(C)C1=O (centres undefined)
// result < 3.25

The reported measurements were obtained from ChEMBL document CHEMBL1141084.
